- Test system: 653999-131-R-J2-PDC complex spheroid viability;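 also: spheroids exposed to agents for seven days before readout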
- experiment-description: Anticancer human tumor 653999-131-R-J2-PDC patient-derived lung adenocarcinoma cell line growth inhibition
- condition-parameters: second compound 3.16 µM; first compound 0.0316 µM; active compounds read low
// returns F unless viability, T/C is strictly below 80%, in which case T

{"compound": "CC[C@@]1(O)C(=O)OCc2c1cc1n(c2=O)Cc2cc3c(CN(C)C)c(O)ccc3nc2-1 + NC1CC1c1ccc(-c2cccc(O)c2)cc1", "class-label": "T"}
{"compound": "CC(C)c1c(-c2ccccc2)nc2c(C#N)c[nH]n2c1=O + NC1CCC(NC2CC2c2ccccc2)CC1", "class-label": "F"}
{"compound": "CC(C)CC(NC(=O)CNC(=O)c1cc(Cl)ccc1Cl)B1OC(=O)CC(CC(=O)O)(C(=O)O)O1 (stereo unspecified) + NC1CC1c1ccc(-c2cccc(O)c2)cc1", "class-label": "T"}
{"compound": "CC1(C)CCC(CN2CCN(c3ccc(C(=O)NS(=O)(=O)c4ccc(NCC5CCOCC5)c([N+](=O)[O-])c4)c(Oc4cnc5[nH]ccc5c4)c3)CC2)=C(c2ccc(Cl)cc2)C1 + NC1CC1c1ccc(-c2cccc(O)c2)cc1", "class-label": "F"}

Attention now shifts to the item below.
INPUT: Is it true that viability, T/C reported for COc1ccc([C@@H](O)c2cc(-c3ncnc4cc(N5CCOCC5)ccc34)c(F)cc2Cl)nn1 + NC1CC1c1ccc(-c2cccc(O)c2)cc1 is less than 80%?
OUTPUT: T
